The compounds listed here are annotated with their Degree of platelet aggregation (%, Mean ± SEM).
Tested on: collagen-induced platelet aggregation, Human PRP
Assay: Collagen-induced platelet aggregation in human PRP (lumi-aggregometer)
Type: cell-based
Settings: collagen 2-5 μg/ml, 100 μM
Protocol: To investigate whether the candidate substance has inhibition selectivity for shear-stress-induced platelet aggregation, which is by a physical stimulus, […] experiment was conducted by activating platelets with physiological agonists—i.e., thrombin, collagen and ADP—to study the inhibitory effect of the candidate substance. […]
Please respond with the number in % and leave the unit unwritten.

[[record]]
smiles_str = "COc1ccc(NC(=O)c2ccc(O)c(OC)c2)c([N+](=O)[O-])c1"
value = 84.5

[[record]]
smiles_str = "COc1cc(C(=O)N2CCc3sccc3C2)ccc1O"
value = 80.0

[[record]]
smiles_str = "O=C(c1ccc(O)c(O)c1)N1CCc2sccc2C1"
value = 80.7

[[record]]
smiles_str = "O=C(c1cc(O)ccc1O)N1CCC(c2noc3ccc(F)cc23)CC1"
value = 84.5

[[record]]
smiles_str = "COc1cc(C(=O)Oc2c(C)occc2=O)ccc1O"
value = 80.0


### Prompt Any idea what its Degree of platelet aggregation (%, Mean ± SEM) is? The compound is O=C(c1cc(O)ccc1O)N1CCc2sccc2C1
### Response 81.3

### Prompt Entry CCc1occc(=O)c1OC(=O)c1ccc(O)c(OC)c1 please
### Response 79.5
